Item-by-item account of IC50
tested target: UniProt P36897
Sequence (P36897 whole entry): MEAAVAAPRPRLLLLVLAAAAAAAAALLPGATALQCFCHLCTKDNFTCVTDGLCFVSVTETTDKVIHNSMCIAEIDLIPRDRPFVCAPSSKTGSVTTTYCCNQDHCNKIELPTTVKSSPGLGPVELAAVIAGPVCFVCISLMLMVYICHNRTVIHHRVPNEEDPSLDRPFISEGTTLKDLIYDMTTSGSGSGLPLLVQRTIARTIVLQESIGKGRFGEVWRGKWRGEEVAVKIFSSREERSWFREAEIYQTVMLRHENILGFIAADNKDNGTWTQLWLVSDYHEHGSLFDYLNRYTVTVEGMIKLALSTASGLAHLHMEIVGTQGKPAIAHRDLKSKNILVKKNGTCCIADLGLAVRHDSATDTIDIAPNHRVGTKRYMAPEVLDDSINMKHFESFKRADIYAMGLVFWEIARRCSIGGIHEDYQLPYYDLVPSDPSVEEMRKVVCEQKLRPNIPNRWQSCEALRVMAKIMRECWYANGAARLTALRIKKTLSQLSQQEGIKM
Just the number please, in nM, no unit attached.

[
  {
    "given smiles": "COc1cc2nccc(Oc3ccc(C)cc3C(C)=O)c2cc1OC",
    "property": "IC50",
    "quantitative readout": 4400
  }
]

# ---- query compound ----
Query IC50 for COc1cc2nccc(Oc3cc(C)c(C)cc3C(C)=O)c2cc1OC 630

Taken from ChEMBL document CHEMBL1150385.
